# testedSystem: ΔF508-CFTR (Homo sapiens, UniProt P13569, DEL508-508)
# Construct: host or cells: CFBE41o-, doxycycline-inducible
# Sequence (P13569 with tags, fused parts or gaps DEL508-508): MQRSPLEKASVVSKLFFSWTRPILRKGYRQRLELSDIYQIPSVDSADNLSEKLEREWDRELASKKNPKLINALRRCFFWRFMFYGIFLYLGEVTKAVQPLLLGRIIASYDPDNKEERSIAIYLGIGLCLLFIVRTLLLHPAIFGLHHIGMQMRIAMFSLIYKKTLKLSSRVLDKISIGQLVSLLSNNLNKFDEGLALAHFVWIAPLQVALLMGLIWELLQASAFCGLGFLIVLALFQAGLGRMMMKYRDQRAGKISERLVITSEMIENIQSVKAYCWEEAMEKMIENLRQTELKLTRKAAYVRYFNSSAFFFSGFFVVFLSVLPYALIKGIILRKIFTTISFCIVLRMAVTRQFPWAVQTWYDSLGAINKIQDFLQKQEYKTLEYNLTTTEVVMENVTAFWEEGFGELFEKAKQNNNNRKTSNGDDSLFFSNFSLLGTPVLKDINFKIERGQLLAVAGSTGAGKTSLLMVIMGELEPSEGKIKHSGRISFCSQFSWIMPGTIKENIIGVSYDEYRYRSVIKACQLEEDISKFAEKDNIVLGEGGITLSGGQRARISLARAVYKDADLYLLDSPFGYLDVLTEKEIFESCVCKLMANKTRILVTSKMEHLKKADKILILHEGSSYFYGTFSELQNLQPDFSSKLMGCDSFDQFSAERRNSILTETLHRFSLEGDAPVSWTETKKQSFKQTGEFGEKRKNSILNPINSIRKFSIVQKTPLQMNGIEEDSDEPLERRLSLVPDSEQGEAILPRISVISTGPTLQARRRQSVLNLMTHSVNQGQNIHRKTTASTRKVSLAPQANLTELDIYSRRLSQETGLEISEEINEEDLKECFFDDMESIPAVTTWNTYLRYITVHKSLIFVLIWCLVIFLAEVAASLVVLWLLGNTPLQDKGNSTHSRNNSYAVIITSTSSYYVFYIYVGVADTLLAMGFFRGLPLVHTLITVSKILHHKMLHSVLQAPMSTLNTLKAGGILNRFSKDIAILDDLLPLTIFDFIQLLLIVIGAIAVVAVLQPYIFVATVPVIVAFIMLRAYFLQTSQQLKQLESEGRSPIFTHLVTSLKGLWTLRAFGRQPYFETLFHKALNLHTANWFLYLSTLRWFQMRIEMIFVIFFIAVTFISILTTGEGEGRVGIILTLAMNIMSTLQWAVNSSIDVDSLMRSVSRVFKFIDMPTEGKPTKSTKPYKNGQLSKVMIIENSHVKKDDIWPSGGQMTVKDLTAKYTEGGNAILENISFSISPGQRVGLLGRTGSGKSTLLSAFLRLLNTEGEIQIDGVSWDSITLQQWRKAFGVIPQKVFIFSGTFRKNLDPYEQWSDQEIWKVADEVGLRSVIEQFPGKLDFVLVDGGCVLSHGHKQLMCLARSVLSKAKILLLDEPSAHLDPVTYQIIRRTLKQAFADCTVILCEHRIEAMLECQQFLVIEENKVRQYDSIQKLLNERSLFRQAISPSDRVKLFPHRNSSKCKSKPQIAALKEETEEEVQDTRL
# assay: CFTR cell surface levels using HRP-tagged ΔF508-CFTR expressing CFBE cells, in the presence of a co-corrector
# Type: cell-based
# experimentalSetup: HRP-tagged ΔF508-CFTR expressing CFBE cells, in the presence of 3 μM co-corrector; read-out: EC50
# Text: Measuring CFTR Cell Surface Levels Using HRP-Tagged AF508-CFTR Expressing CFBE Cells The HRP-tagged AF508-CFTR cell assay measures the expression of CFTR-ΔF508 at the plasma membrane. […] When HRP-tagged AF508-CFTR is present at the plasma membrane, the HRP enzyme activity can be measured. The amount of CFTR-ΔF508 that can be rescued to the plasma membrane is correlated with the amount of functional enzyme that can be measured. […]
Task for the reader: assign each of the following compounds its reported pEC50.
Answers are plain numbers, as −log10 of the molar value.

Check out these entries, answers already filled in.
compound="Cc1nn(-c2ccccc2)c2nc(C(=O)O)cc(O[C@H]3C[C@@H](N4CCS(=O)(=O)CC4)C3)c12 [compound 333]" resultnumber=5.39
compound="CC(C)c1nn(-c2cccc(N(C)C)c2)c2nc(C(=O)O)cc(N3CCC(C(F)(F)F)C3)c12 (stereo not shown) [compound 270]" resultnumber=6.28
compound="CN(C)[C@H]1C[C@@H](Oc2cc(C(=O)O)nc3c2c(C2CCC2)nn3-c2ccccc2)C1 [compound 492]" resultnumber=5.60

### Prompt Specify pEC50 for CC(=O)N1CC2CN(c3cc(C(=O)O)nc4c3c(C(C)C)nn4-c3cccc(C)c3)CC2C1 (stereo not shown) [compound 233] and stop.
### Response 5.48

Data origin, for the record: patent US9796711B2
